// reported TGI for each item listed
System: SNB-75 CNS
Assay: NCI tumour cell line growth inhibition, 48 h

Task: Given the entry COc1ccc(C2CC(c3cc4c(C)c(C(=O)c5ccccc5)oc4cc3O)=Nc3ccccc3S2)cc1OC (configuration not stated) , report its measured TGI.
Result: > 100 µM

Task: Please answer likewise for CCOC(=O)c1nc2c3c(ncn2n1)Oc1c(c(-c2ccccc2)nn1-c1ccccc1)C3c1ccc(OC)c(OC)c1 (configuration not stated)
Result: 66.6 µM

Task: Please answer likewise for Cc1ccc(-c2cc(-c3ccco3)nc(N)n2)o1
Result: > 100 µM

Task: Please answer likewise for CCCCCCCCCCCCNC(=O)NCC(OCC)OCC
Result: > 10 µM

Task: Please answer likewise for C=C1CC2CC[C@@]34C[C@@H]5O[C@@H]6C(O[C@H]7CC[C@H](CC(=O)OC8[C@@H](C)C9OC%10C[C@]%11(C[C@@H]%12O[C@@]%13(C[C@@H](C)[C@@H]%12O%11)C[C@H](C)[C@@H]%11OC%12CC(C(O)CO)OC%12C[C@@H]%11O%13)OC%10CC9O[C@H]8C[C@H]8O[C@@H](CC[C@@H]1O2)C[C@@H](C)C8=C)O[C@@H]7[C@@H]6O3)C5O4 (some centres not stated)
Result: 0.00367 µM

Continuing:
Task: Given the entry O=c1/c(=C/c2cccc3ccccc23)sc2nc3ccccc3n12 , report its measured TGI.
Result: > 100 µM

Task: Please answer likewise for Cc1cccc(C)c1NC(=O)CCC(=O)NNC(=O)c1cc(O)c2ccccc2c1
Result: > 100 µM

Where these numbers come from: PubChem BioAssay (NCI)
